molecular target: Synaptosomen-Aufnahme von Noradrenalin (Rattus norvegicus, UniProt Q63380); construct: Durch differentielle Zentrifugation wurden Synaptosomen erhalten; from tissue; host or cells: rat brain hippocampus synaptosomes; assay: Inhibition of noradrenaline uptake in rat brain synaptosomes (hippocampus, 3H-noradrenaline); format: biochemical, Ratten; settings: rat hippocampus synaptosomes, 3H-Noradrenalin ca. 10 nM, 37°C; read-out: Hemmung der Synaptosomen-Aufnahme von Noradrenalin IC50
Sequence (Q63380 1-617): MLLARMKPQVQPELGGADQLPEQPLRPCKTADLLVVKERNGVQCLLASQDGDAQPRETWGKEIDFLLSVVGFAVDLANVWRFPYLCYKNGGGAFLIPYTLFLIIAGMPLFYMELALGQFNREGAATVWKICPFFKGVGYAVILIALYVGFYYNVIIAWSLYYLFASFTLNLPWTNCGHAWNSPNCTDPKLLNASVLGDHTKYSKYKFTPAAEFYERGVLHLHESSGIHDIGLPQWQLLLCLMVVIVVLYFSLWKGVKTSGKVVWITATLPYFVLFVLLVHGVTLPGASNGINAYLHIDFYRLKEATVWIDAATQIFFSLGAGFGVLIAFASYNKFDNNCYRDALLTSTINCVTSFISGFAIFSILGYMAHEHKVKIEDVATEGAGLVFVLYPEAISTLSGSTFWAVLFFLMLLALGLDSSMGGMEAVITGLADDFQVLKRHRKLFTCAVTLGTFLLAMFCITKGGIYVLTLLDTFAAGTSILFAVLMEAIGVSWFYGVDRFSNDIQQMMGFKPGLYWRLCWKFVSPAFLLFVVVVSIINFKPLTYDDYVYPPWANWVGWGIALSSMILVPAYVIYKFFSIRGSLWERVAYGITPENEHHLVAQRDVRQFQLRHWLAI
pIC50 for assorted compounds
Entry type: numeric. Quantity: pIC50, the -log10 of concentration in molar units.

Solved cases (10 shown):
Cc1cc(-n2ccc(=N)cn2)ccc1Br ... 8.00
Cc1ccc(-n2ccc(=N)cn2)cc1Cl ... 7.82
Cc1ccc(-n2ccc(=N)cn2)cc1Br ... 7.59
N=c1ccn(-c2ccc(Br)c(Br)c2)nc1 ... 8.29
N=c1ccn(-c2ccc(Cl)c(Cl)c2)nc1 ... 8.24
N=c1ccn(-c2ccc(C(F)(F)F)cc2)nc1 ... 6.15
Cc1ccc(-n2ccc(=N)cn2)cc1F ... 7.59
N=c1ccn(-c2ccc(C(F)(F)F)c(Cl)c2)nc1 ... 7.08
Cc1cc(-n2ccc(=N)cn2)ccc1Cl ... 7.77
N=c1ccn(-c2ccc(Cl)c(Br)c2)nc1 ... 7.89

Lab note: measured pIC50 of N=c1ccn(-c2ccc(Br)c(Cl)c2)nc1 was 8.32

Measured pIC50, N=c1ccn(-c2ccc(Br)cc2)nc1 : 7.47
